Target: T1, Biotinylated CD3-specific binding domain SEQ ID NO: 13 (biotinylated (site not stated))
T1 construct: Ligand on the neutravidin (NLC) SPR chip; The same domain is the CD3-specific domain of TCE #1
T1 chain: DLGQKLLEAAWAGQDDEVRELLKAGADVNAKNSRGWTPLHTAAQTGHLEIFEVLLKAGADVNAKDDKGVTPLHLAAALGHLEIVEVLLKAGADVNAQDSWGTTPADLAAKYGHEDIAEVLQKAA
Experiment: SPR (ProteOn XPR36), 33 C, multi-trace; biotinylated ligand on chip, binder as analyte
pKd: −log10 of the molar value.
For each of the binders below, state its pKd.

* Binder #3 (designed binder) MRGSHHHHHHGSDLGKKLLQAARAGQLDEVRELLKAGADVNAKDFKGLTPLHLAAAHGHLEIVEVLLKAGADVNAKDVYGWTPLHWAAAKGHLEIVEVLLKAGADVNAKDWLGITPLHLAASHGHLEIVEVLLKAGADVNAQDKSGKTPADLAARAGHQDIAEVLQKAA | 10.80

Please go through the list and note pKd for each binder.
1. Binder #6 (designed binder) MRGSHHHHHHGSDLGKKLLQAARAGQLDEVRELLKAGADVNAKDQYGWTPLHLAAYSGHLEIVEVLLKAGADVNAKDWVGWTPLHLAASHGHLEIVEVLLKAGADVNAKDEAGRTPLHIAAKQGHLEIVEVLLKAGADVNAQDKSGKTPADLAARAGHQDIAEVLQKAA
2. Binder #7 (designed binder) MRGSHHHHHHGSDLGKKLLQAARAGQLDEVRELLKAGADVNAKDHYGWTPLHLAAAEGHLEIVEVLLKAGADVNAKDWIGYTPLHIAASHGHLEIVEVLLKAGADVNAKDSSGKTPLHIAAQHGHLEIVEVLLKAGADVNAQDKSGKTPADLAARAGHQDIAEVLQKAA

> 10.70
> 10.70

Reference source for all entries: patent US20240108746A1
